system: human C1q; test: Reverse ELISA: inhibition of PAP immune complex binding to C1q coated plates; conditions: PAP pre-incubated 1 h with peptide or C1q, 30 min on C1q coated plates; lower OD = more inhibition; positive control 2.355
# label = Y if OD 405 nm >= 1 else N

Recorded results for 3 sequences are shown here.
DCAWHLGELVWCT ... Y
APPCARHLGELVWCT ... N
APPDCAWHLGELVWCT ... N

stdin: Evaluate DCAFHLGELVWCT : OD 405 nm at minimum 1?
stdout: N

stdin: Now give it for APPCAWHLGELVWCT too.
stdout: Y

====

test system: FcγIII; experiment: Reverse ELISA: inhibition of PAP immune complex binding to FcγIII coated plates; settings: PAP pre-incubated 1 h with peptide, 1 h on FcγIII coated plates; lower = more inhibition; positive control 1.588
No end group written: not given here.
# label = met if FcγIII (read at 405 nm) >= 0.7 else not met

APPCAWHLGELVWCT ... not met
APPCAFHLGELVWCT (not fully specified; cysteine pairing not given here) ... met
APPDCAWHLGELVWCT ... not met
DCAFHLGELVWCT ... met

Shifting focus to the sequence that follows.
stdin: Evaluate DCAWHLGELVWCT : FcγIII (read at 405 nm) at minimum 0.7?
stdout: met
